# System: MS2 coat protein
# ASSAY: apparent KD of MS2 coat protein; designed switch direction (-1 OFF switch, 1 ON switch): -1; higher = weaker reporter binding
# CONDITION_INFO: input ligand: FMN 200 uM
# reported apparent KD of MS2 coat protein; entries follow

QUERY_SEQUENCE	ASSAYED_SYSTEM	UNITS	apparent KD of MS2 coat protein
AUAACCGAAGGAUAUAGUCGUGAGGACAUGAGGAUCACCCAUGUGUUUCAGAUAGUCCCACUAGAAGGUCGGCGUC [Eternabot (L2) Solution 29] (Eterna round: R97, puzzle: Exclusion 5)	MS2 coat protein	nM	110
CUUGUGUCAGGAUAUGCUAAGUAUUCGUUUUACGCGUCUAGGCAGAAGGGACAUGAGGAUCACCCAUGUAACGC [EX4 B.30] (Eterna round: R97, puzzle: Exclusion 4)	MS2 coat protein	nM	172
AAAUUGGUAGAGGAUAUCGCACAGGAUUUACUGCGAGAAGGCUGCACAUGAGGAUCACCCAUGUUUAGUUGCGA [EX6 #36] (Eterna round: R97, puzzle: Exclusion 6)	MS2 coat protein	nM	20.3
GUAAUGCUGCGAGGAUAUACAUGAGGAUCACCCAUGUGGAUGUCUGAGGCAAAGCCUCAGACGAUGUAGAAGGCGCAGUAAAAU [Mat - Exclusion NG 2 - Mod of JL - D54] (Eterna round: R96, puzzle: Exclusion NG 2)	MS2 coat protein	nM	85.7
ACAAGCUUGUAAUGAUUGAACAUGAGGAUCACCCAUGUAAAUGGAAGAACCAAUUUGAUAAGAUAUACUCGUCUUAU [JR_STOV1_Sub007] (Eterna round: R97, puzzle: Sensor, turn-off variant 1)	MS2 coat protein	nM	57.8

Cited source: the supplement of paper PMC9170038
